# ASSAY_CONTEXT: pH 10
Below, each entry is listed with its recorded exp LogD.

Illustrative cases are given below, each with its answer.
{"columns": ["COMPOUND", "VALUE_TYPE", "MEASURED_VALUE"],
 "data": [
  ["CC(CCNCC12CC3CC(CC(C3)C1)C2)Nc1c(F)cnc2cc(Cl)ccc12 (stereo not drawn) [Compound 104]", "exp LogD", "3.24 (pH=10)"],
  ["CC(CCCNCc1ccc(-c2csc3ccc(F)cc23)cc1)Nc1ccnc2ccccc12 (stereo not drawn) [Compound 91]", "exp LogD", "3.98 (pH=10)"],
  ["CC(CCNCCC12CC3CC(CC(C3)C1)C2)Nc1c(F)cnc2cc(Cl)ccc12 (stereo not drawn) [Compound 103]", "exp LogD", "4.33 (pH=10)"]
]}

Name the reported exp LogD value associated with the compound CC(CCNc1ccnc2cc(Cl)ccc12)NCC12CC3CC(CC(C3)C1)C2 (stereo not drawn) [Compound 102]
3.40 (pH=10)

Next up: CC(CCCNCc1ccc(-c2csc3ccc(C#N)cc23)cc1)Nc1ccnc2ccccc12 (stereo not drawn) [Compound 36]
3.67 (pH=10)

Next up: CC(CCCN(C)Cc1ccc(-c2csc3ccc(C#N)cc23)cc1)Nc1ccnc2ccccc12 (stereo not drawn) [Compound 38]
3.42 (pH=10)

====

# ASSAY_CONTEXT: pH 10
Below, each entry is listed with its recorded exp LogD.

{"columns": ["COMPOUND", "exp LogD"],
 "data": [
  ["CC(CCCNc1ccnc2ccccc12)NCc1ccc(-c2csc3ccc(F)cc23)cc1 (centres unmarked)", "3.85 (pH=10)"],
  ["CC(CCNCCC12CC3CC(CC(C3)C1)C2)Nc1c(F)cnc2ccccc12 (centres unmarked)", "4.13 (pH=10)"],
  ["CC(CCNCC12CC3CC(CC(C3)C1)C2)Nc1c(F)cnc2ccccc12 (centres unmarked)", "3.09 (pH=10)"],
  ["N#Cc1ccc2scc(-c3ccc(CNCCCCNc4ccnc5ccccc45)cc3)c2c1", "3.67 (pH=10)"],
  ["CN(CCCCNc1ccnc2ccccc12)Cc1ccc(-c2csc3ccc(F)cc23)cc1", "3.98 (pH=10)"],
  ["CC(CCN(C)CC12CC3CC(CC(C3)C1)C2)Nc1ccnc2cc(Cl)ccc12 (centres unmarked)", "3.47 (pH=10)"],
  ["N#Cc1ccc2scc(-c3ccc(CNCCCCCCNc4ccnc5ccccc45)cc3)c2c1", "3.85 (pH=10)"]
]}

Would you kindly look at the next entry?
Name the reported exp LogD value associated with the compound CN(CCCNc1ccnc2cc(Cl)ccc12)CC12CC3CC(CC(C3)C1)C2
3.24 (pH=10)

====

# SYSTEM_NAME: BoNT/A holotoxin (Clostridium botulinum)
# Sequence (P0DPI1 2-448 limits assumed): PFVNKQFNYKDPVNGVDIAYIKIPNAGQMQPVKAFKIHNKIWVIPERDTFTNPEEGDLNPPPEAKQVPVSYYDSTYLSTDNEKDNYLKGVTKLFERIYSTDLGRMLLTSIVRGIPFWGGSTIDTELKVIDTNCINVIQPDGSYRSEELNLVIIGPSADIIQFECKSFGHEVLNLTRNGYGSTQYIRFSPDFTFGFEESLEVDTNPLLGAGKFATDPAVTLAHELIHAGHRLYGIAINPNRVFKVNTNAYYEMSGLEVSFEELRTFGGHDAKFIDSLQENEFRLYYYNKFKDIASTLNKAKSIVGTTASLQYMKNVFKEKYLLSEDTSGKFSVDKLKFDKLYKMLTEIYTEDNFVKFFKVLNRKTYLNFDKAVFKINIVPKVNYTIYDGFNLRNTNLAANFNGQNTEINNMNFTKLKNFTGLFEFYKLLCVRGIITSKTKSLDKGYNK
# METHOD_DESCRIPTION: cell-based
# ASSAY_CONTEXT: 20 μM
VALUE_TYPE: % of full length SNAP-25, mES-MNs pre intoxication

{"columns": ["MOLECULE", "MEASURED_VALUE"],
 "data": [
  ["CC(CCNCC12CC3CC(CC(C3)C1)C2)Nc1c(F)cnc2cc(Cl)ccc12 (stereo not shown)", "31; 35%"],
  ["CC(=O)O[C@H]1C[C@H]2[C@@H]([C@H](OC(C)=O)C[C@@H]3C[C@H](N)CC[C@@]32C)[C@@H]2CC[C@H]([C@H](C)CCCNCCCCNc3ccnc4ccccc34)[C@@]12C", "28; 67%"],
  ["N#Cc1ccc2scc(-c3ccc(CNCCCCNc4ccnc5ccccc45)cc3)c2c1", "21; 26%"]
]}

Would you kindly look at the next entry?
Name the reported % of full length SNAP-25, mES-MNs pre intoxication value associated with the molecule CC(=O)O[C@H]1C[C@H]2[C@@H]([C@H](OC(C)=O)C[C@@H]3C[C@H](NCCCCCCNc4ccnc5cc(Cl)ccc45)CC[C@@]32C)[C@@H]2CC[C@H]([C@H](C)CCCNCCCCCCNc3ccnc4cc(Cl)ccc34)[C@@]12C [Compound 1, reference compound]
70; 84%
